Molecular target: SIRT6 enzyme (Homo sapiens)
Experiment: Measurement of deacetylation activity (SIRT6, AlphaLISA, H3K9(Ac) peptide)
Assay type: biochemical
Conditions: SIRT6 25 ng/mL, H3K9(Ac) biotin peptide 2 nM, NAD 10 μM, room temperature 30 minutes, duplicate
As shown below, each of these molecules has a reported EC150 (the concentration of the compound showing a relative enzyme activity of 150%) value.
Recorded endpoint: EC150 (the concentration of the compound showing a relative enzyme activity of 150%) (μm)

* C[C@H](O)CNC(=O)Nc1nc2c(s1)[C@@H]1COC[C@H](C2)N1c1ncc(-c2cccc(OC(F)F)n2)o1 | 0.74
* C[C@H](CO)NC(=O)Nc1nc2c(s1)CN(c1nc(C3CCCC(F)(F)C3)no1)CC2 (stereo partly shown) | 2.1
* CNC(=O)Nc1nc2c(s1)[C@@H]1COC[C@H](C2)N1c1nnc(-c2cccc(OC(C)C)c2)o1 | 1.5
* CNC(=O)Nc1nc2c(s1)C1COCC(C2)N1c1nnc(-c2cccc(C(F)F)c2)o1 (stereo not shown) | 1.4
* COc1ccc2oc(N3[C@@H]4COC[C@H]3c3sc(NC(=O)N[C@@H]5CCOC5)nc3C4)nc2c1 | 0.83
* CC(C)NC(=O)Nc1nc2c(s1)[C@@H]1COC[C@H](C2)N1c1nc2cc(S(C)(=O)=O)ccc2o1 | 1.5
* CNC(=O)Nc1nc2c(s1)[C@@H]1COC[C@H](C2)N1c1nc(-c2ccc(F)cc2)no1 (single isomer, unassigned) | 1.3

----------
The following molecules are shown together with reported EC150 (the concentration of the compound showing a relative enzyme activity of 150%) values.
Molecular target: SIRT6 enzyme (Homo sapiens, UniProt Q8N6T7)
Sequence (Q8N6T7 whole entry, species assumed): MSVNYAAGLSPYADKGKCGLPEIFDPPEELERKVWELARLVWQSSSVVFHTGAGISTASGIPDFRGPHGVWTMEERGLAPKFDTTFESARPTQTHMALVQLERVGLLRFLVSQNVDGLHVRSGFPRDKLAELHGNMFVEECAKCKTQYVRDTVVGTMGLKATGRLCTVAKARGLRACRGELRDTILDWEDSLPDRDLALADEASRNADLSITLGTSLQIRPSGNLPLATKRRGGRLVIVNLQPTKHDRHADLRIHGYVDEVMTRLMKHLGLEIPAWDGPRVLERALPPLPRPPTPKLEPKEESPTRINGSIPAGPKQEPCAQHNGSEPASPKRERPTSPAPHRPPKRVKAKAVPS
Assay: Measurement of deacetylation activity (SIRT6, AlphaLISA, H3K9(Ac) peptide)
Format: biochemical
Details: SIRT6 25 ng/mL, H3K9(Ac) biotin peptide 2 nM, NAD 10 μM, room temperature 30 minutes, duplicate
Recorded endpoint: EC150 (the concentration of the compound showing a relative enzyme activity of 150%) (μm)

• C[C@H](CO)NC(=O)Nc1nc2c(s1)[C@@H]1COC[C@H](C2)N1c1nc2cc(F)c(F)cc2o1 [Example 42] = 1.3
• CNC(=O)Nc1nc2c(s1)C1CN(C(=O)OC)CC(C2)N1c1nnc(-c2cccc(C(=O)C3CC3)c2)o1 (centres unmarked) [Example 123] = 0.66
• COc1cccc(-c2cnc(N3[C@@H]4COC[C@H]3c3sc(NC(=O)N[C@@H]5CCOC5)nc3C4)o2)n1 [Example 185] = 0.4
• COCCNC(=O)Nc1nc2c(s1)CN(c1nc(C3CC(F)(F)CCO3)no1)CC2 (centres unmarked) [Example 98] = 2.6
• CNC(=O)Nc1nc2c(s1)CN(c1nc(-c3cccc(OC(F)(F)F)c3)no1)CC2 [Example 8] = 3.6
• COC(=O)N1C[C@H]2Cc3nc(NC(=O)NCC(C)(C)O)sc3[C@@H](C1)N2c1nc(C2(C(F)(F)F)CC2)no1 (relative stereo) [Example 33] = 1.6
• COc1ccc2oc(N3[C@@H]4COC[C@H]3c3sc(NC(=O)NCC(C)(C)O)nc3C4)nc2c1 [Example 46] = 2.1
• COc1cc(-c2noc(N3C4COCC3c3sc(NC(=O)N[C@H](C)CO)nc3C4)n2)ccc1F (some centres unmarked) [Example 83] = 0.68
• CNC(=O)Nc1nc2c(s1)CN(c1nc(C(C)OCC(F)(F)F)no1)CC2 (centres unmarked) [Example 4] = 1.2
• CC(=O)N1CC2Cc3nc(NC(=O)NC(C)C)sc3C(C1)N2c1nc(-c2ccc(F)cc2)no1 (centres unmarked) [Example 137] = 0.36
• CC(=O)N1CC(NC(=O)Nc2nc3c(s2)[C@@H]2COC[C@H](C3)N2c2ncc(-c3cccc(OC(F)F)n3)o2)C1 [Example 183] = 0.24
• CNC(=O)Nc1nc2c(s1)[C@@H]1COC[C@H](C2)N1c1nc2cc(OC)ccc2o1 [Example 48] = 1.2
• CNC(=O)Nc1nc2c(s1)[C@H]1CN(C(C)=O)C[C@@H](C2)N1c1nc(-c2ccc(F)cc2)no1 (relative stereo) [Example 23] = 0.19
• O=C(Nc1nc2c(s1)[C@@H]1COC[C@H](C2)N1c1ncc(-c2cccc(OC(F)F)n2)o1)N[C@H]1CC[C@H](O)CC1 [Example 176] = 0.33
• CNC(=O)Nc1nc2c(s1)C1CN(S(C)(=O)=O)CC(C2)N1c1nc(-c2ccc(F)cc2)no1 (centres unmarked) [Example 31] = 2.5
• O=C(NCc1nnc[nH]1)Nc1nc2c(s1)CN(c1nc(C3CCC(F)(F)CC3)no1)CC2 [Example 102] = 0.33
• CC(C)(O)CNC(=O)Nc1nc2c(s1)[C@@H]1COC[C@H](C2)N1c1nc2cc(F)c(F)cc2o1 [Example 146] = 1.9
• C[C@H](CO)NC(=O)Nc1nc2c(s1)CN(c1nccc(C3CCCOC3)n1)CC2 (some centres unmarked) [Example 191] = 1.2
• CNC(=O)Nc1nc2c(s1)[C@@H]1COC[C@H](C2)N1c1nnc(-c2cccc(C(=O)C3CC3)c2)o1 [Example 21] = 1.5
• COc1cc2nc(N3[C@@H]4COC[C@H]3c3sc(NC(=O)N[C@@H]5CCOC5)nc3C4)oc2cc1C [Example 45] = 0.79
• Cc1ccc2oc(N3[C@@H]4COC[C@H]3c3sc(NC(=O)NCC(C)(C)O)nc3C4)nc2c1 [Example 145] = 2.2
• COc1ccc2oc(N3[C@@H]4COC[C@H]3c3sc(NC(=O)NC(C)(C)CO)nc3C4)nc2c1 [Example 58] = 2.4
• [2H]C([2H])([2H])Oc1ccc2oc(N3[C@@H]4COC[C@H]3c3sc(NC(=O)NCC(C)(C)O)nc3C4)nc2c1 [Example 60] = 1.7
• Cn1ccc(CNC(=O)Nc2nc3c(s2)[C@@H]2COC[C@H](C3)N2c2ncc(-c3cccc(OC(F)F)n3)o2)cc1=O [Example 178] = 0.1
• C[C@@H](O)CNC(=O)Nc1nc2c(s1)[C@@H]1COC[C@H](C2)N1c1cc(-c2ccc(F)cc2)on1 [Example 65] = 2.1
• CNC(=O)Nc1nc2c(s1)C1CN(C(C)=O)CC(C2)N1c1ncc(-c2cccc(OC)n2)o1 (centres unmarked) [Example 126] = 1
• CC(C)CNC(=O)Nc1nc2c(s1)[C@@H]1COC[C@H](C2)N1c1nc2cc(S(C)(=O)=O)ccc2o1 [Example 43] = 1.5
• COc1ccc2oc(N3Cc4sc(NC(=O)NCC(C)(C)O)nc4CC3(C)C)nc2c1 [Example 190] = 1.7
• CC(C)(CO)NC(=O)Nc1nc2c(s1)[C@@H]1COC[C@H](C2)N1c1cc(-c2ccc(F)cc2)on1 [Example 160] = 3.2

Every entry's value here was drawn from patent US11981686B2.
